B1: 2M8U (parent)
chain: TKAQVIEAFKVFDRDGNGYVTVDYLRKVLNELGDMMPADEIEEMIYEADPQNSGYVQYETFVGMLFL

- Variants of: B1
- Experimental Details: folding stability dG (cDNA display proteolysis); higher = more stable
- Stated Conditions: PBS, room temperature
# Lookup of reported folding stability dG keyed by entry
Write the value in kcal/mol as a bare number.

Worked cases, answers included:
>  <Mutation>
E40C

>  <Recorded Metric>
folding stability dG

>  <Measured Number>
3.85

$$$$
>  <Mutation>
G18M

>  <Recorded Metric>
folding stability dG

>  <Measured Number>
2.62

$$$$
>  <Mutation>
R14G

>  <Recorded Metric>
folding stability dG

>  <Measured Number>
3.35

$$$$
>  <Mutation>
R26N

>  <Recorded Metric>
folding stability dG

>  <Measured Number>
2.59

$$$$
>  <Mutation>
D23H

>  <Recorded Metric>
folding stability dG

>  <Measured Number>
3.84

$$$$

[in] Bench note: what folding stability dG did A48C show?
[out] 3.84

[in] Item under review: Y55N . Reported folding stability dG?
[out] 3.16

[in] Entry A8L has what folding stability dG?
[out] 3.56

[in] Fill blank: measured folding stability dG of the variant Y46N is ____.
[out] 3.57

[in] GET /values?readout=folding stability dG&item= G63Q
[out] 3.47

[in] Name the recorded folding stability dG for E47I .
[out] 3.92
